A collection of binders and their measured Classification
Target: T1, GST-LIM-RIL PDZ domain 1 (Homo sapiens (Human)), P50479
T1 chain: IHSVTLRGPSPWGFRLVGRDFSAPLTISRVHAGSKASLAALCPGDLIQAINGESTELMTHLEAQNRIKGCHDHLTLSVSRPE
Assay: G' assay; note: key of the grades not given here
# output: bare number, implied unit A450 class

Study these solved cases before continuing.
>>> df
                                     binder  numeric_readout
0  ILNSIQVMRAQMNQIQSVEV (modifications not checked) [ephrin B2]                2
1  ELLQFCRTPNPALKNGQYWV (modifications not checked) [CSPG4 (chondroitin sulfae proteoglycan 4, melanoma-associated)]                2
2  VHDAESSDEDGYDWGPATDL (modifications not checked) [zona occludens 3 (ZO-3) PL peptide]                2

Could you now consider this next binder?
Qu. Identify Classification associated with the binder INSVGSTASSSQPLLVHDDV (modifications not checked) [c-kit receptor]
Ans. 1
